Reported Ratio values are given for each entry in this list.
# assay name: Ratio of efflux ratio of permeability in pig LLC-MDR1 cells to efflux ratio of permeability in pig LLC-PK1 cells
# Format: ADME, cell-based, Sus scrofa
Output: the number by itself.

Some molecules with recorded Ratio:
In [3]: df
Out[3]:
                                   molecule  numeric_readout
0  COc1ccc(OC[C@@]2(c3ccccc3)C[C@H]2C(=O)Nc2ccncc2)cc1OC              4.9
1  COc1ccc(OC[C@@]2(c3ccccc3)C[C@H]2C(=O)Nc2cc(C#N)ccn2)cc1OC                1
2  COc1ccc(OC[C@@]2(c3ccccc3)C[C@H]2C(=O)Nc2ncc(C)s2)cc1OC              2.4
3  COc1ccc(OC[C@@]2(c3ccccc3)C[C@H]2C(=O)Nc2ccccc2)cc1OC              0.6
4  COc1ccc(OC[C@@]2(c3ccccc3)C[C@H]2C(=O)Nc2cccnc2)cc1OC              3.4
5  COc1ccc(OC[C@@]2(c3ccccc3)C[C@H]2C(=O)Nc2ccccn2)cc1OC              0.9
6  COc1ccc(OC[C@@]2(c3ccccc3)C[C@H]2C(=O)Nc2nc(C)cs2)cc1OC              1.5
7  COc1ccc(OC[C@@]2(c3ccccc3)C[C@H]2C(=O)Nc2ccc(C#N)cn2)cc1OC (racemic)              1.1

Pending molecule:
### Prompt State the recorded Ratio for this entry: COc1ccc(OCC2(c3ccccc3)CC2C(=O)Nc2ccc(C#N)cn2)cc1OC (single isomer, unassigned; (-))
### Response 1.1
